Data origin: ChEMBL document CHEMBL1240419

Tested on: Haemophilus influenzae
Test: Antibacterial activity against ampicillin-resistant Haemophilus influenzae 3300 by broth microdilution method
Assay type: functional
Readout Type: MIC (µg/mL)
Answers are plain numbers, in µg/mL.

Illustrative cases are given below, each with its answer.
Smi | Experimental System | Recorded Value
CC[C@H]1OC(=O)[C@H](C)[C@@H](OC(=O)NCc2ccc(F)cc2)[C@H](C)[C@@H](O[C@@H]2O[C@H](C)C[C@H](N(C)C)[C@H]2O)[C@](C)(OC)C[C@@H](C)C(=O)[C@@H](C)[C@@H](OC)[C@]1(C)O | Haemophilus influenzae | 4
CC[C@H]1OC(=O)[C@H](C)[C@@H](OC(=O)NCCc2ccccc2)[C@H](C)[C@@H](O[C@@H]2O[C@H](C)C[C@H](N(C)C)[C@H]2O)[C@](C)(OC)C[C@@H](C)C(=O)[C@@H](C)[C@@H](OC)[C@]1(C)O | Haemophilus influenzae | 4
CC[C@H]1OC(=O)[C@H](C)[C@@H](OC(=O)NCCCOC(C)C)[C@H](C)[C@@H](O[C@@H]2O[C@H](C)C[C@H](N(C)C)[C@H]2O)[C@](C)(OC)C[C@@H](C)C(=O)[C@@H](C)[C@@H](OC)[C@]1(C)O | Haemophilus influenzae | 32

Now look at this one.
Problem: So what's the measured MIC for this one? `CC[C@H]1OC(=O)[C@H](C)[C@@H](OC(=O)NCc2ccc(Cl)cc2)[C@H](C)[C@@H](O[C@@H]2O[C@H](C)C[C@H](N(C)C)[C@H]2O)[C@](C)(OC)C[C@@H](C)C(=O)[C@@H](C)[C@@H](OC)[C@]1(C)O`
Solution: 4
